Species: Rattus norvegicus
Measurement notes: DrugMatrix - Regimen: Daily Repeat
Assay type: toxicity, organism-based, Sprague-Dawley
Set-up: regimen Daily Repeat, gender Male, age 6-8 weeks
Measurement parameters: in vivo, po, 0 mg/kg, 72 h, tissue Blood, route oral GAVAGE, dose level Control, time 3 day, vehicle 100 % WATER
Measured quantity: LYMPHOCYTE (%)
Give bare numbers, in %.

State the recorded LYMPHOCYTE for this entry: CCN(CC)CCOC(=O)C1(C2CCCCC2)CCCCC1 [DICYCLOMINE] 82.33

Fill in LYMPHOCYTE for each of the 3 compounds listed.
1. O=c1[nH]c(=O)n(C2CCCO2)cc1F (centres undefined) [TEGAFUR]
2. CNC1=Nc2ccc(Cl)cc2C(c2ccccc2)=[N+]([O-])C1 [CHLORDIAZEPOXIDE]
3. CN(C)CCC=C1c2ccccc2CCc2ccccc21 [AMITRIPTYLINE]

[89.83, 91, 91.67]
